Each entry below carries its recorded IC50 of cell viability.
Tested on: MDA-MB-231
Details: incubation time: 72 h; siRNA: siBRCA1
Number in µM, nothing else.

Which value of IC50 of cell viability has been reported for C/C(=C\c1csc(C)n1)[C@@H]1C[C@@H]2O[C@]2(C)CCC[C@H](C)[C@H](O)[C@@H](C)C(=O)C(C)(C)[C@@H](O)CC(=O)O1 in the records?
0.0294

Next compound: Cc1c2oc3c(C)ccc(C(=O)N[C@@H]4C(=O)N[C@H](C(C)C)C(=O)N5CCC[C@H]5C(=O)N(C)CC(=O)N(C)[C@@H](C(C)C)C(=O)O[C@@H]4C)c3nc-2c(C(=O)N[C@@H]2C(=O)N[C@H](C(C)C)C(=O)N3CCC[C@H]3C(=O)N(C)CC(=O)N(C)[C@@H](C(C)C)C(=O)O[C@@H]2C)c(N)c1=O
0.00419

----------
Test system: MDA-MB-231
Conditions: incubation time: 72 h; siRNA: siBRCA1
Each entry below carries its recorded IC50 of cell viability.
Number in µM, nothing else.

Examples from the recorded data:
COc1cc2c(cc1O)CC[C@@H]1[C@@H]2CC[C@]2(C)[C@@H](O)CC[C@@H]12 ... 1.23
Cc1ccc(-c2cc(C(F)(F)F)nn2-c2ccc(S(N)(=O)=O)cc2)cc1 ... 1.35
CNC(=O)c1cc(Oc2ccc(NC(=O)Nc3ccc(Cl)c(C(F)(F)F)c3)cc2)ccn1 ... 2.95
O=C1c2c(O)ccc(O)c2C(=O)c2c(NCCNCCO)ccc(NCCNCCO)c21 ... 0.143
CN1CC[C@H](c2c(O)cc(O)c3c(=O)cc(-c4ccccc4Cl)oc23)[C@H](O)C1 ... 0.181

Quick check: IC50 of cell viability on MDA-MB-231, item CCC1=C[C@@H]2CN(C1)Cc1c([nH]c3ccccc13)[C@@](C(=O)OC)(c1cc3c(cc1OC)N(C)[C@H]1[C@@](O)(C(=O)OC)[C@H](OC(C)=O)[C@]4(CC)C=CCN5CC[C@]31[C@@H]54)C2 ?
0.031

Next molecule: CCCCC(=O)OCC(=O)[C@]1(O)Cc2c(O)c3c(c(O)c2[C@@H](O[C@H]2C[C@H](NC(=O)C(F)(F)F)[C@H](O)[C@H](C)O2)C1)C(=O)c1c(OC)cccc1C3=O
0.729

Next molecule: c1cc(CN2CCCNCCNCCCNCC2)ccc1CN1CCCNCCNCCCNCC1
2.08

Next molecule: COc1cccc2cc(-c3nc([C@H]4CC[C@H](C(=O)O)CC4)n4ncnc(N)c34)[nH]c12
0.973

Next molecule: O=c1[nH]c(=O)n([C@H]2C[C@H](O)[C@@H](CO)O2)cc1F
0.748

Next molecule: CCC/C=C/C=C/C(=O)O[C@H]1/C(=C/C(=O)OC)C[C@H]2C[C@H]([C@@H](C)O)OC(=O)C[C@H](O)C[C@@H]3C[C@H](OC(C)=O)C(C)(C)[C@](O)(C[C@@H]4C/C(=C/C(=O)OC)C[C@H](/C=C/C(C)(C)[C@]1(O)O2)O4)O3
0.0833

Next molecule: Cn1cnc2c(F)c(Nc3ccc(Br)cc3Cl)c(C(=O)NOCCO)cc21
0.61

Next molecule: O=C(NC[C@H](O)CO)c1ccncc1Nc1ccc(I)cc1F
0.132

Next molecule: CN1CCC(COc2cnc(-c3cccc(Cn4nc(-c5cccc(C#N)c5)ccc4=O)c3)nc2)CC1
3.77

Next molecule: CC(C)C[C@H](NC(=O)[C@H](Cc1ccccc1)NC(=O)c1cnccn1)B(O)O
0.00691

----------
Test system: MDA-MB-231
Conditions: incubation time: 72 h; siRNA: siBRCA1
measuredEndpoint: IC50 of cell viability (nM)
Number in nM, nothing else.

O=C(CCCCCCC(=O)Nc1ccccc1)NO [Vorinostat] ... 2040

# ---- query molecule ----
Which value of IC50 of cell viability has been reported for C=CC(=O)Nc1cc2c(Nc3ccc(F)c(Cl)c3)ncnc2cc1OCCCN1CCOCC1 [Canertinib] in the records?
2510

----------
Test system: MDA-MB-231
Conditions: incubation time: 72 h; siRNA: siBRCA1
// map IC50 of cell viability to label using lower band (below 50 nM), central band (50 nM to below 2000 nM), upper band (2000 nM or more)

Here's what some known entries look like.
COc1ccc(S(=O)(=O)Nc2cccnc2Nc2ccc(O)cc2)cc1 ... central band
CNC(=O)c1cc(Oc2ccc(NC(=O)Nc3ccc(Cl)c(C(F)(F)F)c3)c(F)c2)ccn1 ... central band
Nc1ccn([C@@H]2O[C@H](CO)[C@@H](O)C2(F)F)c(=O)n1 ... upper band
CCNC(=O)c1noc(-c2cc(C(C)C)c(O)cc2O)c1-c1ccc(CN2CCOCC2)cc1 ... lower band

# bin label for CCN(CC)CCNC(=O)c1c(C)[nH]c(/C=C2\C(=O)Nc3ccc(F)cc32)c1C
upper band

Next compound: CCCS(=O)(=O)Nc1ccc(F)c(C(=O)c2c[nH]c3ncc(-c4ccc(Cl)cc4)cc23)c1F
upper band

Next compound: O=C(O)C1(C(=O)O)CCC1.[NH2-].[NH2-].[Pt+2]
upper band

Next compound: Nc1nc(F)nc2c1ncn2[C@@H]1O[C@H](CO)[C@@H](O)[C@@H]1O
upper band

Next compound: COCC[n+]1c2c(n(Cc3cnccn3)c1C)C(=O)c1ccccc1C2=O
lower band

Next compound: Nc1nc(Cl)nc2c1ncn2[C@H]1C[C@H](O)[C@@H](CO)O1
upper band

Next compound: CC(C)C[C@H](NC(=O)[C@H](CCc1ccccc1)NC(=O)CN1CCOCC1)C(=O)N[C@@H](Cc1ccccc1)C(=O)N[C@@H](CC(C)C)C(=O)[C@@]1(C)CO1
lower band

Next compound: CC(C)(C)c1cnc(CSc2cnc(NC(=O)C3CCNCC3)s2)o1
central band

Next compound: C[C@]12CC[C@@H]3c4ccc(O)cc4C[C@@H](CCCCCCCCC[S+]([O-])CCCC(F)(F)C(F)(F)F)[C@H]3[C@@H]1CC[C@@H]2O (some centres not stated)
upper band

Next compound: Oc1nc(-c2ccc(C(F)(F)F)cc2)nc2c1CSCC2
upper band

Next compound: C=CCNC1=C2C[C@@H](C)C[C@H](OC)[C@H](O)[C@@H](C)/C=C(\C)[C@H](OC(N)=O)[C@@H](OC)/C=C\C=C(/C)C(=O)NC(=CC1=O)C2=O
central band

Next compound: O=C(/C=C/c1cccc(S(=O)(=O)Nc2ccccc2)c1)NO
central band

Next compound: COCC1(CO)C(=O)C2CCN1CC2 (configuration not stated)
upper band

----------
Tested on: MDA-MB-231
Conditions: incubation time: 72 h; siRNA: siBRCA1
// map IC50 of cell viability to label using low: < 0.09 µM; medium: ≥ 0.09 µM and < 2 µM; high: ≥ 2 µM

Here's what some known entries look like.
COc1cc2nccc(Oc3ccc(NC(=O)Nc4cc(C)on4)c(Cl)c3)c2cc1OC [Tivozanib] ... high
CC1=C(/C=C/C(C)=C/C=C/C(C)=C/C(=O)O)C(C)(C)CCC1 [Tretinoin] ... high
COc1c2occc2cc2ccc(=O)oc12 [Methoxsalen] ... high
Cc1c(C(=O)Nc2ccc(N3C[C@@H](C)O[C@@H](C)C3)nc2)cccc1-c1ccc(OC(F)(F)F)cc1 [NVP-LDE225] ... high

# bin label for CCCCCCCCc1ccc(CCC(N)(CO)CO)cc1 [Fingolimod]
high

Next molecule: CN[C@@H]1C[C@H]2O[C@@](C)([C@@H]1OC)n1c3ccccc3c3c4c(c5c6ccccc6n2c5c31)C(=O)N[C@H]4O [UCN-01]
low

Next molecule: CO[C@@H](C(=O)N1Cc2[nH]nc(NC(=O)c3ccc(N4CCN(C)CC4)cc3)c2C1)c1ccccc1 [Danusertib]
medium

----------
Each entry below carries its recorded IC50 of cell viability.
Tested on: MDA-MB-231
Conditions: incubation time: 72 h; siRNA: siBRCA1

Examples from the recorded data:
N#Cc1ccc(C(c2ccc(C#N)cc2)n2cncn2)cc1 ... > 4.17 µM
S=c1[nH]cnc2nc[nH]c12 ... > 4.17 µM
Nc1ccn([C@@H]2O[C@H](CO)[C@@H](O)[C@@H]2O)c(=O)n1 ... 0.591 µM
CNNCc1ccc(C(=O)NC(C)C)cc1 ... > 4.17 µM
O=P1(NCCCl)OCCCN1CCCl (centres undefined) [Ifosfamide] ... > 4.17 µM

Which value of IC50 of cell viability has been reported for Cc1ccc(NC(=O)c2ccc(CN3CCN(C)CC3)cc2)cc1Nc1nc(-c2cccnc2)cs1 in the records?
> 4.17 µM

Next compound: CS(=O)(=O)c1ccc(C(=O)Nc2ccc(Cl)c(-c3ccccn3)c2)c(Cl)c1
> 4.17 µM

Next compound: COc1cc(F)c(F)c(Nc2ccc(I)cc2F)c1NS(=O)(=O)C1(C[C@H](O)CO)CC1 [RDEA119 (Refametinib)]
0.0922 µM

Next compound: Nc1ncn([C@H]2C[C@H](O)[C@@H](CO)O2)c(=O)n1
> 4.17 µM
